// provenance: ChEMBL document CHEMBL3991601

// values below are Kd; system is Protein kinase C theta type (Homo sapiens, UniProt Q04759); further: in the data inactive means no Kd found up to 30 µM
Sequence (Q04759 whole entry): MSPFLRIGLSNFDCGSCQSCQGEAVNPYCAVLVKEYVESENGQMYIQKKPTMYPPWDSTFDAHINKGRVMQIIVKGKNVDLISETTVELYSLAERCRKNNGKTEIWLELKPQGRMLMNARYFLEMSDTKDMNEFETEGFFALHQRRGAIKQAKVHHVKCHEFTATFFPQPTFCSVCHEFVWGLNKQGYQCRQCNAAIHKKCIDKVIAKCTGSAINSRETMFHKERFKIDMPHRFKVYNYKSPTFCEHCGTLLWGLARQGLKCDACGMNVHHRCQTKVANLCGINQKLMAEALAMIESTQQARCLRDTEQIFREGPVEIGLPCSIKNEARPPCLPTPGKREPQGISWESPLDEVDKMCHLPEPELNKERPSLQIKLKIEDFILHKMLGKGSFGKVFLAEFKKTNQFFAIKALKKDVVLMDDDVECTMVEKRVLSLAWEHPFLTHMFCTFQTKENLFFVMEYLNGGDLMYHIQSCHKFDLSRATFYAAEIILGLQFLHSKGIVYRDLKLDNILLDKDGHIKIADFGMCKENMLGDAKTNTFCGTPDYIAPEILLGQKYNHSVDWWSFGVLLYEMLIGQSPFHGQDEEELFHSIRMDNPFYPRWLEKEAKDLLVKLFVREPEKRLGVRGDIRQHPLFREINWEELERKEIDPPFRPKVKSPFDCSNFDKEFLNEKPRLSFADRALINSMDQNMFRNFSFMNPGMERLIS
The source made the active and inactive calls.

The cases that follow already have their Kd on record.
>>> print(df.to_string())
                                   compound                         target_under_test  endpoint_label              result
0  COCCN1CCN(Cc2ccc(-c3n[nH]c4c3C(=O)c3c(NC(=O)NN5CCOCC5)cccc3-4)cc2)CC1 [RGB-286638]  Protein kinase C theta type (Homo sapiens, UniProt Q04759)              Kd  > 30 µM (inactive)
1  FC(F)(F)c1ccc(CNc2ccc(Cc3c[nH]c4ncc(Cl)cc34)cn2)cn1 [PEXIDARTINIB]  Protein kinase C theta type (Homo sapiens, UniProt Q04759)              Kd            0.006 µM
2  COc1ccc(-c2ccc3ncc4c(c3c2)n(-c2ccc(N3CCNCC3)c(C(F)(F)F)c2)c(=O)n4C)cn1 [BGT-226 FREE BASE]  Protein kinase C theta type (Homo sapiens, UniProt Q04759)              Kd  > 30 µM (inactive)
3  CN1CCN(c2nc(C3=C(c4c[nH]c5ccccc45)C(=O)NC3=O)c3ccccc3n2)CC1 [SOTRASTAURIN]  Protein kinase C theta type (Homo sapiens, UniProt Q04759)              Kd   0.013 µM (active)
4  CC(C)(O)CC(=O)NCCn1ccc2ncnc(Nc3ccc(Oc4cccc(C(F)(F)F)c4)c(Cl)c3)c21 [TAK-285]  Protein kinase C theta type (Homo sapiens, UniProt Q04759)              Kd  > 30 µM (inactive)
5  Cc1cc(C(=O)Nc2cc(Oc3ccc4nc(NC(=O)C5CC5)cn4n3)ccc2C)n(C)n1 [TAK-593]  Protein kinase C theta type (Homo sapiens, UniProt Q04759)              Kd  > 30 µM (inactive)
6  COc1ccc2c(OCc3nnc4ccc(-c5ccccc5)nn34)ccnc2c1 [AMG-208]  Protein kinase C theta type (Homo sapiens, UniProt Q04759)              Kd  > 30 µM (inactive)
7  CCOc1ccn(-c2ccc(F)cc2)c(=O)c1C(=O)Nc1ccc(Oc2ccnc(N)c2Cl)c(F)c1 [BMS-777607]  Protein kinase C theta type (Homo sapiens, UniProt Q04759)              Kd  > 30 µM (inactive)

INPUT: Field: Kd (Protein kinase C theta type (Homo sapiens, UniProt Q04759)). Entry: O=C(Nc1ccc(OC(F)(F)F)cc1)c1sccc1NCc1ccnc2ccccc12 [OSI-930]
OUTPUT: > 30 µM (inactive)

INPUT: For the record COc1cc2ncnc(Nc3ccc(O)cc3)c2cc1OC [WHI-P131] , what value of Kd is listed for Protein kinase C theta type (Homo sapiens, UniProt Q04759)?
OUTPUT: > 30 µM (inactive)

INPUT: Return Kd measured with Protein kinase C theta type (Homo sapiens, UniProt Q04759) given this compound: c1cc(OCCN2CCCCC2)cc(-c2n[nH]c3ccc(-c4nc[nH]n4)cc23)c1 [CC-401]
OUTPUT: > 30 µM (inactive)

INPUT: Observed Kd on Protein kinase C theta type (Homo sapiens, UniProt Q04759) for COc1cc(Nc2ncc(F)c(Nc3ccc4c(n3)N(COP(=O)(O)O)C(=O)C(C)(C)O4)n2)cc(OC)c1OC [FOSTAMATINIB] , please.
OUTPUT: > 30 µM (inactive)
